B1: library; numbered along this chain (parent)
chain: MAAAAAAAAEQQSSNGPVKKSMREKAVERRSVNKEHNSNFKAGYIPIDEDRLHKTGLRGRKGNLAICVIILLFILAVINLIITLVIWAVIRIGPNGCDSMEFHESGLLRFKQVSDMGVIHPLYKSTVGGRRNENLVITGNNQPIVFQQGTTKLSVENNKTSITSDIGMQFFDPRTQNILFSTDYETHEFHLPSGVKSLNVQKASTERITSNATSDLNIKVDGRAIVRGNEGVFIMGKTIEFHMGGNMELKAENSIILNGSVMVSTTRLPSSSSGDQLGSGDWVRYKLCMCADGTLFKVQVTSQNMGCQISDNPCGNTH

- Variants of: B1
- Assay Overview: SGCB cell-surface expression functional score (HA stain, bin4 vs bin1, normalised to synonymous) (log10 ratio); higher = more cell-surface SGCB (functional)
SGCB cell-surface expression functional score (log10) vs -0.4: at or above is 1.0, below is 0.0.

Record excerpt, results attached:
N217M    1.0
E49L    1.0
G236W    0.0
V27F    1.0

## Task Decide: SGCB cell-surface expression functional score (log10) of "K202Y" >= -0.4?
## Result 0.0

## Task Decide: SGCB cell-surface expression functional score (log10) of "Q303A" >= -0.4?
## Result 0.0

## Task Decide: SGCB cell-surface expression functional score (log10) of "N63M" >= -0.4?
## Result 1.0

## Task Decide: SGCB cell-surface expression functional score (log10) of "S31L" >= -0.4?
## Result 1.0
